ratio IC50 high HSA/IC50 low HSA for assorted binders
- testedSystem: T1, human GLP-1 receptor (human, UniProt P43220 24-463)
- T1 construct: whole, on cells; Used as purified membranes of the transfected hamster cells, not whole cells; also called hGLP-1
- measurementProtocol: SPA, 2.0% vs 0.005% HSA
*1 amine or outer side, *2 acyl side, *3 side chain or, on linkers, in order; H or OH if unused. Where no end group is shown, it is not given here. Side-chain parts run from the residue outwards. [ ]: non-standard residue; d: D form. The star is where a group is joined. γGlu = O=C(O)[C@H](CCC(=O)[*:2])N[*:1]; Desaminohistidyl = O=C(CCc1c[nH]cn1)*; 13‑carboxytridecanoyl = C14 diacid; AEEA = NCCOCCOCC(=O)O; Aib = CC(C)(N)C(=O)O
metric: ratio IC50 high HSA/IC50 low HSA

[
  {
    "binder": "H[Aib]EGTFTSDVSK([AEEA-AEEA-γGlu-13‑carboxytridecanoyl])YLEEQAVRK([AEEA-AEEA-γGlu-13‑carboxytridecanoyl])FIAHLVG",
    "result": "> 1"
  },
  {
    "binder": "[Desaminohistidyl][Aib]EGTFTSDVSK([AEEA-AEEA-γGlu-13‑carboxytridecanoyl])YLEEQAVREFIAK([AEEA-AEEA-γGlu-13‑carboxytridecanoyl])LVG [GLP-1 derivative of Example 21: [Imp7,Aib8,Lys18,Glu22,Val25,Arg26,Lys31,Gly34]-GLP-1-(7-34)-peptide]",
    "result": "> 1"
  }
]

Numbers sourced from patent US9708383.
